So I've got a bunch of sequences here, and I need their self-splicing fitness (ln) values.
Experiment: self-splicing fitness, log relative to wild type (ln ratio); higher = more splicing; Tetrahymena group I intron in knt gene, E. coli kanamycin selection, DiMSum; sequences stand for … in CUCUCU…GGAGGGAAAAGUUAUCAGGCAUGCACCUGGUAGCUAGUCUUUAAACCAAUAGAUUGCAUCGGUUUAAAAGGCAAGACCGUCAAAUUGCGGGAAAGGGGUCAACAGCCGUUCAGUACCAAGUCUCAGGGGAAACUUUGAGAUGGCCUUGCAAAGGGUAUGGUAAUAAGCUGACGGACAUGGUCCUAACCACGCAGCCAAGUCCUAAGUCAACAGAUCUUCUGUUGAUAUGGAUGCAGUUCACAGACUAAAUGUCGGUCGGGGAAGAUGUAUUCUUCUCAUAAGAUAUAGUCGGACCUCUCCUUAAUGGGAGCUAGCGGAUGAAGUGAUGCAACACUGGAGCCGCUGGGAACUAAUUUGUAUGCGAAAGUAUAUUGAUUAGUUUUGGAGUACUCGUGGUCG;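 note: selection with 25 µg/mL kanamycin versus none on LB agar overnight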
Settings: 30 °C
Just the number, please.

Which self-splicing fitness (ln) value belongs to `CCAUAGCAAUAUUACGCCCA` ?
-1.9

Try `CCGAAGCAAUAUUACGCGGU` next.
-3.64

Try `CUCUAGCAAUAUUACGGUCA` next.
-3.27

Try `GGCUAGCAAUAUUACGGUUC` next.
-1.31

Try `GGAGAGCAAUAUUACGAAAG` next.
-2.26

Try `ACCUAGCAAUAUUACGACGC` next.
-0.289

Try `UGACAGCAAUAUUACGUGCU` next.
-4.32

Try `UGAGAGCAAUAUUACGUACA` next.
-2.02

Try `GGCCAGCAAUAUUACGGUGA` next.
-0.376

Try `UCUUAGCAAUAUUACGCCAU` next.
-2.69

Try `CACUAGCAAUAUUACGCUGC` next.
-3.71

Try `UGUGAGCAAUAUUACGUAUG` next.
-1.22

Try `ACAGAGCAAUAUUACGUAAA` next.
-3.71

Try `AUGCAGCAAUAUUACGACCA` next.
-1.45

Try `CAAUAGCAAUAUUACGUCUC` next.
-2.8

Try `AUCAAGCAAUAUUACGGUUG` next.
-3.05

Try `AUAAAGCAAUAUUACGUGCG` next.
-0.493

Try `UGUGAGCAAUAUUACGCGUA` next.
-2.35

Try `GUCGAGCAAUAUUACGUAAU` next.
-0.411

Try `GGUUAGCAAUAUUACGGGAC` next.
-3

Try `UAACAGCAAUAUUACGAAAU` next.
-3.46

Try `UGCAAGCAAUAUUACGGUAU` next.
-3.81

Try `UCUGAGCAAUAUUACGGAUA` next.
-3.08

Try `UAACAGCAAUAUUACGUCCA` next.
-0.357

Try `GUCGAGCAAUAUUACGCUUC` next.
-5.12

Try `GCUCAGCAAUAUUACGUUCG` next.
-1.13

Try `GGACAGCAAUAUUACGUGUG` next.
-1.55

Try `GAAAAGCAAUAUUACGUCGG` next.
-4.39

Try `GACGAGCAAUAUUACGACUC` next.
-1.36

Try `CCACAGCAAUAUUACGUCAG` next.
-0.817

Try `AGAAAGCAAUAUUACGACAC` next.
-0.194

Try `UUUCAGCAAUAUUACGUAUU` next.
-2.08

Try `CCAUAGCAAUAUUACGCUUG` next.
-2.3

Try `UCCGAGCAAUAUUACGAUAG` next.
-3.72

Try `UGCGAGCAAUAUUACGACAC` next.
-2.71

Try `AGUUAGCAAUAUUACGGCAA` next.
-0.82

Try `UCACAGCAAUAUUACGGUAC` next.
-3.57

Try `CCCAAGCAAUAUUACGGACG` next.
-2.8

Try `CAGUAGCAAUAUUACGUUUA` next.
-3.19

Try `UAACAGCAAUAUUACGCUGA` next.
-3.33

Try `UUAAAGCAAUAUUACGAGCC` next.
-2.3

Try `GCACAGCAAUAUUACGGUUG` next.
-2.18

Try `AUAAAGCAAUAUUACGUGAA` next.
-1.39

Try `CUAGAGCAAUAUUACGAGCU` next.
-3.73

Try `GGCAAGCAAUAUUACGGCAA` next.
0.2

Try `ACUGAGCAAUAUUACGGUAA` next.
-2.81

Try `CGCUAGCAAUAUUACGAGUA` next.
-0.852

Try `UUCGAGCAAUAUUACGUAUG` next.
-2.17

Try `CCGAAGCAAUAUUACGCGGA` next.
-3.61

Try `GGUUAGCAAUAUUACGGUCG` next.
-0.323

Try `CACCAGCAAUAUUACGUGUA` next.
-2.09

Try `UUUGAGCAAUAUUACGUCAG` next.
-3.43

Try `GAAUAGCAAUAUUACGUACA` next.
-1.7

Try `UUAGAGCAAUAUUACGAUUU` next.
-2.08

Try `CAUCAGCAAUAUUACGCCAU` next.
-3.98

Try `CUAAAGCAAUAUUACGUGAU` next.
-1.35

Try `CGUUAGCAAUAUUACGUGGC` next.
-2.5

Try `CGGCAGCAAUAUUACGUCAU` next.
-2.83

Try `UAGGAGCAAUAUUACGGAGU` next.
-1.77

Try `CGCAAGCAAUAUUACGCAAG` next.
-2.84

Try `AGUUAGCAAUAUUACGGGCU` next.
-3.01

Try `CGGGAGCAAUAUUACGAGCA` next.
-3

Try `GGUGAGCAAUAUUACGCGCA` next.
-0.814

Try `UCUGAGCAAUAUUACGGCAA` next.
-2.44

Try `UAACAGCAAUAUUACGAUAU` next.
-2.28

Try `CCCCAGCAAUAUUACGAGCG` next.
-4.16

Try `GUUCAGCAAUAUUACGUUCC` next.
-2.79
